Values were extracted from patent US20150274826A1.

mean fluorescence relative to chimeric antibody: recorded values
- targetOfAssay: T1, mouse CD47 (mouse, UniProt Q61735 19-303)
- T1 construct: whole, on cells; also called CD47 on mouse RBCs; CD47 on 4T1 cells
- T1 sequence (looked up): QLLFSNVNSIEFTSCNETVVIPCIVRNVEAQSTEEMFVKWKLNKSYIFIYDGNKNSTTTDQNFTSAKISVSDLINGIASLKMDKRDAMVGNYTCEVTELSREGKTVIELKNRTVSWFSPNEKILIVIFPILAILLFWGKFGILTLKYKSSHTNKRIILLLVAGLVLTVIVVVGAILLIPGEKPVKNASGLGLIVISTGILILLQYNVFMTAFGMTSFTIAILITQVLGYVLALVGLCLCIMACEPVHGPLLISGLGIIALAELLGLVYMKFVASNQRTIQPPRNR
- experimentNotes: flow cytometry on RBCs, CHO supernatant 10 ng/ml
Report the value in ratio with no unit label.

query: Would you kindly share the measured mean fluorescence relative to chimeric antibody for Clone 4 (pVxK7b-037-hum04-LC / pVxK7b-037-hum04-HC) (antibody, human IgG1, kappa, V domains shown) VH: QVQLQESGPGLVKPSQTLSLTCTVSGYTFTNYYVFWVRQAPGKGLEWVSDINPVNGDTNFNEKFKNRVTISVDTSKNQFSLKLSSVTAADTAVYYCARGGYTMDYWGQGTLVTVSS VL: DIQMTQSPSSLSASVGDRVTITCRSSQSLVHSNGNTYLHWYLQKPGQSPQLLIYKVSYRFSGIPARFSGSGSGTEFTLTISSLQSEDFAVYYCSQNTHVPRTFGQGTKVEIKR ?
result: 0.6

query: Please look up its mean fluorescence relative to chimeric antibody: Clone 11 (pVxK7b-037-hum11-LC / pVxK7b-037-hum11-HC) (antibody, human IgG1, kappa, V domains shown, also called Cl 11) VH: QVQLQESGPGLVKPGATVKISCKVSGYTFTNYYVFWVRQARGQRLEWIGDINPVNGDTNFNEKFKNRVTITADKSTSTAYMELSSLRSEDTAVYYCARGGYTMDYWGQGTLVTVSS VL: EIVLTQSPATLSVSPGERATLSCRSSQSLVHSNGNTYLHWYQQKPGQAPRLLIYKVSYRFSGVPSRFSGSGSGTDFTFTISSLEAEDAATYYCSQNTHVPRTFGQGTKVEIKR
result: 0.7

query: Which mean fluorescence relative to chimeric antibody value is on record for Clone 15 (pVxK7b-037-hum15-LC / pVxK7b-037-hum15-HC) (antibody, human IgG1, kappa, V domains shown) VH: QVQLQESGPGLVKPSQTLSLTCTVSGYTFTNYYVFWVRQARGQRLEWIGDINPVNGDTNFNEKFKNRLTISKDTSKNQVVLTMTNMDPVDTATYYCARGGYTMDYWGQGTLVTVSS VL: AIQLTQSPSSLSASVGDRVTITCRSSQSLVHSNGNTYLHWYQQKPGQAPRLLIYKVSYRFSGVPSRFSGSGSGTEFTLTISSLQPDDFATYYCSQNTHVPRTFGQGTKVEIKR ?
result: 1.3

query: Which mean fluorescence relative to chimeric antibody is listed for Clone 21 (pVxK7b-037-hum21-LC / pVxK7b-037-hum21-HC) (antibody, human IgG1, kappa, V domains shown) VH: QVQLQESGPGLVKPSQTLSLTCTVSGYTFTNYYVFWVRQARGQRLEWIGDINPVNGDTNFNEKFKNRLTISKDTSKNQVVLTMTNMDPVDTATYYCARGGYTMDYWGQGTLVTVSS VL: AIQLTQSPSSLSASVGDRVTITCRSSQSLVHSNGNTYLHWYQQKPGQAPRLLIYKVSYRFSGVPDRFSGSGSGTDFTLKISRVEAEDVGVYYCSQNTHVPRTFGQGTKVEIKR ?
result: 1.2
